Each recorded value in this set is attributed to patent US20250228882A1.

measurement protocol: Bidirectional Caco-2 permeability assay
Type: in vitro ADME
particulars: human; Caco-2 monolayer, basolateral to apical, 90-minute incubation; read-out: Papp, B-A
Protocol: The bidirectional permeability of compounds across the Caco-2 cell monolayer was assessed. The Caco-2 model is a widely used in vitro model for small intestinal absorption and potential for efflux. Cell culture. Caco-2 cells were grown in DMEM supplemented with 10% fetal bovine serum (FBS), 1% Penicillin-Streptomycin and 1% MEMNEAA. […] Sample analysis. The concentrations of test compounds and control compounds in Caco-2 cells were quantitatively determined by LC/MS/MS method after protein precipitation. […]
readout type: Papp B→A at 90 min (×10⁻⁶ cm/s)

• CCOC(C)(C)C(=O)Nc1ncnn2c([C@]3(C#N)O[C@H](COC(=O)Cc4ccccc4)[C@@H](OC(=O)[C@@H](N)C(C)(C)C)[C@H]3O)ccc12 = 15.4
• CCC(CC)C(=O)Nc1ncnn2c([C@]3(C#N)O[C@H](COC(=O)Cc4ccccc4)[C@@H](OC(=O)[C@@H](N)C(C)(C)C)[C@H]3O)ccc12 = 0.13
• CC[C@H](C)C(=O)Nc1ncnn2c([C@]3(C#N)O[C@H](COC(=O)Cc4ccccc4)[C@@H](OC(=O)[C@@H](N)C(C)(C)C)[C@H]3O)ccc12 = 0.1

====

measurement protocol: Bidirectional Caco-2 permeability assay
Type: in vitro ADME
particulars: human, Caco-2
readout type: Papp A→B at 90 min (×10⁻⁶ cm/s)

- CCCCOC(C)(C)C(=O)Nc1ncnn2c([C@]3(C#N)O[C@H](COC(=O)CC4CCCCCC4)[C@@H](OC(=O)[C@@H](N)C(C)(C)C)[C@H]3O)ccc12 [Compound 72]: 0.09
- CCCCOC(=O)Nc1ncnn2c([C@]3(C#N)O[C@H](COC(=O)CC4CCCCCC4)[C@@H](OC(=O)[C@@H](N)C(C)(C)C)[C@H]3O)ccc12 [Compound 65]: 0.79
- CCCCOC(C)(C)C(=O)Nc1ncnn2c([C@]3(C#N)O[C@H](COC(=O)CC4CCCCC4)[C@@H](OC(=O)[C@H](N)C(C)(C)C)[C@H]3O)ccc12 [Compound 73]: 0.24
- CC(C)NC(=O)Nc1ncnn2c([C@]3(C#N)O[C@H](COC(=O)CC4CCCCC4)[C@@H](OC(=O)[C@@H](N)C(C)(C)C)[C@H]3O)ccc12 [Compound 4]: 2.5
- CCCCC(=O)Nc1ncnn2c([C@]3(C#N)O[C@H](COC(=O)CC4CCCCCC4)[C@@H](OC(=O)[C@@H](N)C(C)(C)C)[C@H]3O)ccc12 [Compound 61]: 1.07
- CC(C)[C@@H](C)C(=O)Nc1ncnn2c([C@]3(C#N)O[C@H](COC(=O)CC4CCCCC4)[C@@H](OC(=O)[C@@H](N)C(C)(C)C)[C@H]3O)ccc12 [Compound 14]: 1.96
- CCC(CC)C(=O)Nc1ncnn2c([C@]3(C#N)O[C@H](COC(=O)CC4CCCC4)[C@@H](OC(=O)[C@@H](N)C(C)(C)C)[C@H]3O)ccc12 [Compound 56]: 7.61
- COC(C)(C)C(=O)Nc1ncnn2c([C@]3(C#N)O[C@H](COC(=O)CC4CCCCCC4)[C@@H](OC(=O)[C@H](N)C(C)(C)C)[C@H]3O)ccc12 [Compound 70]: 2.13
- CCCCC(=O)Nc1ncnn2c([C@]3(C#N)O[C@H](COC(=O)CC4CCCC4)[C@@H](OC(=O)[C@@H](N)C(C)(C)C)[C@H]3O)ccc12 [Compound 54]: 3.41
